- TEST_PROTOCOL: ICB984 medulloblastoma cell growth inhibition, synergistic combos for chromothripsis tumors, cisplatin or BGB combos (AID 1671451);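 note: cells exposed for 96 hours before readout; 0% = vehicle DMSO and 100% = killing by high DMSO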
- SETUP_CONDITIONS: ICB984 medulloblastoma cells, drug combinations, BGB IC20 combo, at 0.005 µM, stronger effect = higher value
Entries annotated with measured inhibition
Hi! Could you send only the number? It should be in %, unit omitted.

Example compounds with recorded inhibition:
INPUT: Quick check: inhibition of `CO[C@H]1/C=C/O[C@@]2(C)Oc3c(C)c(O)c4c(O)c(c(C=NN5CCN(C)CC5)c(O)c4c3C2=O)NC(=O)/C(C)=C\C=C\[C@H](C)[C@H](O)[C@@H](C)[C@@H](O)[C@@H](C)[C@H](OC(C)=O)[C@@H]1C` ?
OUTPUT: 6.74

INPUT: Quick check: inhibition of `CCc1c2c(nc3ccc(O)cc13)-c1cc3c(c(=O)n1C2)COC(=O)[C@]3(O)CC` ?
OUTPUT: 45.8

INPUT: Quick check: inhibition of `O=c1[nH]c(-c2ccc(C(F)(F)F)cc2)nc2c1CSCC2` ?
OUTPUT: -4.67

INPUT: Quick check: inhibition of `O=c1ncccn1[C@@H]1O[C@H](CO)[C@@H](O)[C@H]1O` ?
OUTPUT: 4.35

From here, focus on the item given below.
INPUT: Quick check: inhibition of `O=c1cc(-c2cccc3c2Sc2ccccc2S3)oc(N2CCOCC2)c1` ?
OUTPUT: -0.749

Each recorded value in this set is attributed to PubChem BioAssay.
